target: RNA 5’CAG/3’GUC (fully paired RNA); experiment: Fluorescence anisotropy direct binding assay; conditions: read-out: Dissociation constant, 5’CAG/3’GUC
Quantity Kind: Kd

Dear colleague, please send me the reported Kd for N=C(N)c1ccc(-c2cc3ccc(C(=N)N)cc3[nH]2)cc1 when you can.
> 3000 nM

----------
target: RNA 5’CCG/3’GCG; assay: Fluorescence anisotropy direct binding assay; conditions: read-out: Dissociation constant, 5’CCG/3’GCG; direct binding assay
Quantity Kind: Kd (nM)
Dear colleague, please return just the value in nM, with no unit written.

Dear colleague, please send me the reported Kd for N=C(N)c1ccc(-c2cc3ccc(C(=N)N)cc3[nH]2)cc1 [DAPI, 4',6-diamidino-2-phenylindole] when you can.
990

----------
biological target: RNA containing 5’CUG/3’GUC; assay: Fluorescence anisotropy direct binding assay; conditions: read-out: Dissociation constant, 5’CUG/3’GUC; direct binding assay
Quantity Kind: Kd (µM)
Dear colleague, please return just the value in µM, with no unit written.

Dear colleague, please send me the reported Kd for N=C(N)c1ccc(-c2cc3ccc(C(=N)N)cc3[nH]2)cc1 when you can.
0.55

----------
target: RNA containing the 5’CAG/3’GAC motif; assay: Fluorescence anisotropy direct binding assay; settings: read-out: Dissociation constant, 5’CAG/3’GAC
Quantity Kind: pKd
Here pKd is given on a logarithmic scale as minus log10 of the concentration in mol/L.

Dear colleague, please send me the reported pKd for N=C(N)c1ccc(-c2cc3ccc(C(=N)N)cc3[nH]2)cc1 when you can.
6.66

----------
target: RNA containing 5’CGG/3’GGC; test: Fluorescence anisotropy direct binding assay; conditions: read-out: Dissociation constant, 5’CGG/3’GGC; direct binding assay
Quantity Kind: pKd
Here pKd is given on a logarithmic scale as minus log10 of the concentration in mol/L.

Dear colleague, please send me the reported pKd for N=C(N)c1ccc(-c2cc3ccc(C(=N)N)cc3[nH]2)cc1 [DAPI, 4',6-diamidino-2-phenylindole] when you can.
6.30
